# TEST_PROTOCOL: Genotoxicity in Salmonella typhimurium TA1535 harboring pSK1002 assessed as survival at 0.008 mg/ml in presence of Sprague-Dawley rat liver S9 fraction after by SOS/umu assay relative to control
# Format: toxicity, organism-based
# MEASUREMENT_SETUP: salmonella enterica subsp. enterica serovar typhimurium, read-out: Survival
Record form. Attribute: viability at 0.008 mg/ml. Fill in for each entry.
One number for each entry, in %.

| MOLECULE | SCALE_UNIT | viability at 0.008 mg/ml |
| --- | --- | --- |
| OC(CCN1CCN(C(c2ccccc2)c2ccccc2)CC1)c1ccc(F)c2ccccc12 (stereo unspecified) | % | 143 |
| Oc1ccc(C(O)CCN2CC=C(c3ccc(F)cc3)CC2)cc1 (stereo unspecified) | % | 108 |
| O=[N+]([O-])c1ccc(N2CCN(CCC(O)c3ccc(F)c4ccccc34)CC2)cc1 (stereo unspecified) | % | 118 |
| OC(CCN1CC=C(c2ccc(F)cc2)CC1)c1ccc2c(c1)OCO2 (stereo unspecified) | % | 96 |

Lab note: each molecule below needs its viability at 0.008 mg/ml filled in.
1. COC(=O)c1ccc(C(O)CCN2CC=C(c3ccc(F)cc3)CC2)cc1 (stereo unspecified)
2. N#Cc1ccc(N2CCC(NCCC(O)c3ccc(F)c4ccccc34)CC2)c(C(F)(F)F)c1 (stereo in doubt; 72)
3. Nc1ccc(N2CCC(NCCC(O)c3ccc(F)c4ccccc34)CC2)c(C(F)(F)F)c1 (stereo unspecified)
4. N#Cc1ccc(N2CCC(NCCC(O)c3ccc(F)c4ccccc34)CC2)c(Cl)c1 (stereo unspecified)
5. OC(CCN1CCN(C(c2ccccc2)c2ccccc2)CC1)c1ccc(F)c(F)c1 (stereo unspecified)
6. COc1ccccc1N1CCN(CCC(O)c2ccc(F)cc2)CC1 (stereo in doubt; 66)

// result
1. 104
2. 52.9
3. 104
4. 35.1
5. 101
6. 88.2

---

# MEASURED_ON: HSP90 (Plasmodium falciparum 3D7) (UniProt Q8IL32)
# Sequence (Q8IL32 as listed by the source): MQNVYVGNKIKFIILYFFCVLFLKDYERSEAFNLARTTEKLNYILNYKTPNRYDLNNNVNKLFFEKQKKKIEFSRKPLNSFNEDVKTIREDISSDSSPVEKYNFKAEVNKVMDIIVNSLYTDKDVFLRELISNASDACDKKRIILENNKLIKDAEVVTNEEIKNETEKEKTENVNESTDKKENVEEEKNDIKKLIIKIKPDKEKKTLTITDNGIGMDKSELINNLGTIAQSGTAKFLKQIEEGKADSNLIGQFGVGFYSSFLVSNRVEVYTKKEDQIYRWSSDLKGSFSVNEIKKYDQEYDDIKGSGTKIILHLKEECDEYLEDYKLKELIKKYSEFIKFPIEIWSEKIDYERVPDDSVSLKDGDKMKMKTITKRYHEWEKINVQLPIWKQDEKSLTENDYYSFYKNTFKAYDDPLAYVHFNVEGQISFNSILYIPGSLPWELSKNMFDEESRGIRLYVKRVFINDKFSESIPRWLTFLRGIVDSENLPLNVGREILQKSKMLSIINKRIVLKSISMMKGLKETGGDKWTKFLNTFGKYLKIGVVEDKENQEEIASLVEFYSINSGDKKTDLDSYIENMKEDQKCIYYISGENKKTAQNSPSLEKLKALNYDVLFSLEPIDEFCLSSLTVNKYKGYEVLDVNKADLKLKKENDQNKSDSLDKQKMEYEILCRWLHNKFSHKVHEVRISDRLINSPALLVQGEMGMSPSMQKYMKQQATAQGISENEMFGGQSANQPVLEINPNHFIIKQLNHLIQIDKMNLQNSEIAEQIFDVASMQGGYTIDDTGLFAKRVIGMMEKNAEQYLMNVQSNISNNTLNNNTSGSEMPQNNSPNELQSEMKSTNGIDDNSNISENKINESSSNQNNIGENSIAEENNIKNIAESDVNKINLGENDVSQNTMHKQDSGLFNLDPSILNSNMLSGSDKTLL
# TEST_PROTOCOL: Binding affinity to Plasmodium falciparum HSP90 nucleotide binding domain at 0.5 mM by SYPRO orange dye based DSF analysis
Active and inactive are the calls of the source. The rule behind the calls is not given here.
Just give me one of these, please: TRUE = active, FALSE = inactive

Study these solved cases before continuing.
| COMPOUND | ASSIGNED_CATEGORY |
| --- | --- |
| O=[N+]([O-])c1ccc(N2CCC(NCCC(O)c3ccc(F)cc3)CC2)c(C(F)(F)F)c1 (stereo not drawn) | FALSE |
| COc1ccccc1N1CCN(CCC(O)c2ccc(F)cc2)CC1 (stereo in doubt; 66) | FALSE |
| Nc1ncnc2c1ncn2[C@@H]1O[C@H](COP(=O)(O)OP(=O)(O)O)[C@@H](O)[C@H]1O | TRUE |
| OC(CCN1CCN(c2ccccc2C(F)(F)F)CC1)c1ccc(F)c2ccccc12 (stereo in doubt; 55) | FALSE |
| N#Cc1ccc(N2CCC(NCCC(O)c3ccc(F)c4ccccc34)CC2)c(Cl)c1 (stereo not drawn) | FALSE |
| O=[N+]([O-])c1ccc(N2CCC(NCCC(O)c3ccc(F)c4ccccc34)CC2)c(C(F)(F)F)c1 (stereo in doubt; 8) | FALSE |
| OC(CN1CCN(Cc2ccccc2)CC1)Cn1c2ccc(Cl)cc2c2cc(Cl)ccc21 (stereo not drawn) | FALSE |
| OC(CCN1CCN(C(c2ccccc2)c2ccccc2)CC1)c1ccc(F)c2ccccc12 (stereo not drawn) | FALSE |
| N#Cc1ccc(N2CCC(NCCC(O)c3ccc(F)c4ccccc34)CC2)c(Br)c1 (stereo not drawn) | FALSE |
| COc1ccccc1N1CCN(CCC(O)c2ccc(F)c3ccccc23)CC1 (stereo not drawn) | FALSE |

// query What outcome does the record of this test show for Nc1ncnc2c1ncn2[C@@H]1O[C@H](COP(=O)(O)OP(=O)(O)OP(=O)(O)O)[C@@H](O)[C@H]1O ?
// result TRUE

// query What outcome does the record of this test show for CC(C)NCC(O)Cn1c2ccc(Cl)cc2c2cc(Cl)ccc21 (stereo not drawn) ?
// result FALSE

// query What outcome does the record of this test show for N#Cc1ccc(N2CCC(NCCC(O)c3ccc(F)c4ccccc34)CC2)c(C(F)(F)F)c1 (stereo in doubt; 72) ?
// result FALSE

---

# TEST_PROTOCOL: Genotoxicity in Salmonella typhimurium TA1535 harboring pSK1002 assessed as survival at 0.063 mg/ml in presence of Sprague-Dawley rat liver S9 fraction after by SOS/umu assay relative to control
# Type: toxicity, organism-based
# MEASUREMENT_SETUP: salmonella enterica subsp. enterica serovar typhimurium, read-out: Survival
Strictly below 90% in viability at 0.063 mg/ml: Met. Otherwise: Not met.

// query Is 90% strictly greater than the compound's reported viability at 0.063 mg/ml? compound: N#Cc1ccc(N2CCC(NCCC(O)c3ccc(F)c4ccccc34)CC2)c(C(F)(F)F)c1 (stereo in doubt; 72)
// result Met

// query Is 90% strictly greater than the compound's reported viability at 0.063 mg/ml? compound: OC(CCN1CCN(C(c2ccccc2)c2ccccc2)CC1)c1ccc(F)c(F)c1 (stereo not drawn)
// result Not met

// query Is 90% strictly greater than the compound's reported viability at 0.063 mg/ml? compound: N#Cc1ccc(N2CCC(NCCC(O)c3ccc(F)c4ccccc34)CC2)c(Br)c1 (stereo not drawn)
// result Met

---

# TEST_PROTOCOL: Genotoxicity in Salmonella typhimurium TA1535 harboring pSK1002 assessed as umu gene induction at 0.016 mg/ml in presence of Sprague-Dawley rat liver S9 fraction after by SOS/umu assay relative to control
# Format: toxicity, organism-based
# MEASUREMENT_SETUP: salmonella enterica subsp. enterica serovar typhimurium, read-out: FC
RECORDED_METRIC: fold induction at 0.016 mg/ml
Give bare numbers.

| COMPOUND | fold induction at 0.016 mg/ml |
| --- | --- |
| OC(CCN1CCN(c2ccccc2C(F)(F)F)CC1)c1ccc(F)cc1 (stereo unspecified) | 0.9 |
| COc1ccccc1C1=CCN(CCC(O)c2ccc(F)c3ccccc23)CC1 (stereo unspecified) | 0.8 |

Lab note: each compound below needs its fold induction at 0.016 mg/ml filled in.
1. Oc1ccc(C(O)CCN2CC=C(c3ccc(F)cc3)CC2)cc1 (stereo unspecified)
2. OC(CCN1CCN(c2ccc(F)cc2)CC1)c1ccc(F)c2ccccc12 (stereo unspecified)

// result
[1.2, 0.9]

Lab note: each compound below needs its fold induction at 0.016 mg/ml filled in.
1. OC(CCN1CCN(C(c2ccccc2)c2ccccc2)CC1)c1ccc(Cl)cc1 (stereo unspecified)
2. Nc1ccc(N2CCC(NCCC(O)c3ccc(F)c4ccccc34)CC2)c(C(F)(F)F)c1 (stereo unspecified)
3. O=[N+]([O-])c1ccc(N2CCN(CCC(O)c3ccc(F)c4ccccc34)CC2)cc1 (stereo unspecified)
4. N#Cc1ccc(N2CCC(NCCC(O)c3ccc(F)c4ccccc34)CC2)c(Br)c1 (stereo unspecified)
5. OC(CCN1CCN(C(c2ccccc2)c2ccccc2)CC1)c1ccc(F)c(F)c1 (stereo unspecified)

// result
1. 1.1
2. 1.4
3. 0.5
4. 1.9
5. 0.8

Lab note: each compound below needs its fold induction at 0.016 mg/ml filled in.
1. OC(CCN1CC=C(c2ccc(F)cc2)CC1)c1ccc2c(c1)OCO2 (stereo unspecified)
2. O=[N+]([O-])c1ccccc1N1CCN(CCC(O)c2ccc(F)c3ccccc23)CC1 (stereo unspecified)

// result
1: 1; 2: 1.9

---

# TEST_PROTOCOL: Genotoxicity in Salmonella typhimurium TA1535 harboring pSK1002 assessed as umu gene induction at 0.008 mg/ml in absence of Sprague-Dawley rat liver S9 fraction after by SOS/umu assay relative to control
# Type: toxicity, organism-based
# MEASUREMENT_SETUP: salmonella enterica subsp. enterica serovar typhimurium, read-out: FC
Record form. Attribute: fold induction at 0.008 mg/ml. Fill in for each entry.
Give bare numbers.

Here's what some known entries look like.
| COMPOUND | fold induction at 0.008 mg/ml |
| --- | --- |
| OC(CCN1CCN(C(c2ccccc2)c2ccccc2)CC1)c1ccc(F)c(F)c1 (stereo not given) | 1.2 |
| OC(CCN1CCN(C(c2ccccc2)c2ccccc2)CC1)c1ccc(Br)cc1 (stereo not given) | 1.1 |
| N#Cc1ccc(N2CCC(NCCC(O)c3ccc(F)c4ccccc34)CC2)c(Cl)c1 (stereo not given) | 0.8 |
| N#Cc1ccc(N2CCC(NCCC(O)c3ccc(F)c4ccccc34)CC2)c(Br)c1 (stereo not given) | 2.2 |

// query Return reported fold induction at 0.008 mg/ml. Input compound: OC(CCN1CCN(c2ccccc2C(F)(F)F)CC1)c1ccc(F)cc1 (stereo not given)
// result 0.8

---

Record form. Attribute: viability at 0.125 mg/ml. Fill in for each entry.
# TEST_PROTOCOL: Genotoxicity in Salmonella typhimurium TA1535 harboring pSK1002 assessed as survival at 0.125 mg/ml in absence of Sprague-Dawley rat liver S9 fraction after by SOS/umu assay relative to control
# Format: toxicity, organism-based
# MEASUREMENT_SETUP: salmonella enterica subsp. enterica serovar typhimurium, read-out: Survival
A complete answer gives the number and then names the unit.

Here's what some known entries look like.
| MOLECULE | MEASURED_RESULT |
| --- | --- |
| COc1ccccc1N1CCN(CCC(O)c2ccc(F)cc2)CC1 (stereo in doubt; 66) | 107% |
| O=[N+]([O-])c1ccc(N2CCN(CCC(O)c3ccc(F)c4ccccc34)CC2)cc1 (stereo not given) | 145% |
| N#Cc1ccc(N2CCC(NCCC(O)c3ccc(F)c4ccccc34)CC2)c(Cl)c1 (stereo not given) | 79.8% |
| OC(CCN1CCN(c2ccc(F)cc2)CC1)c1ccc(F)c2ccccc12 (stereo not given) | 56.2% |

Moving on to the next molecule.
// query Return reported viability at 0.125 mg/ml. Input molecule: N#Cc1ccc(C(O)CCN2CC=C(c3ccc(F)cc3)CC2)cc1 (stereo not given)
// result 87.9%
